B1: library; a variant is named by its letters at N, in order (parent)
chain: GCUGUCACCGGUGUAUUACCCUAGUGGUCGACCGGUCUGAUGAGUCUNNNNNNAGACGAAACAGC

variants of: B1; test: normalized RNA/DNA level with ligand (relative to sTRSVctl = 100) (log10 (% of sTRSVctl)); ligand: hypoxanthine (xanthine aptamer); higher = less ribozyme self-cleavage, higher mRNA level; details: ligand concentration (+) RNA-Seq: 5 mM, HEK293T, reporter: mCherry (pCS4076), ligand present: yes
variants and their reported normalized RNA/DNA level with ligand (log10)
Please respond with just the number, no unit label.

{"sequenceText": "GCUGUCACCGGUGUAUUACCCUAGUGGUCGACCGGUCUGAUGAGUCUUUGUAGAGACGAAACAGC [UUGUAG]", "readoutValue": 1.99}
{"sequenceText": "GCUGUCACCGGUGUAUUACCCUAGUGGUCGACCGGUCUGAUGAGUCUUGGAACAGACGAAACAGC [UGGAAC]", "readoutValue": 1.89}
{"sequenceText": "GCUGUCACCGGUGUAUUACCCUAGUGGUCGACCGGUCUGAUGAGUCUAGGUCUAGACGAAACAGC [AGGUCU]", "readoutValue": 1.95}
{"sequenceText": "GCUGUCACCGGUGUAUUACCCUAGUGGUCGACCGGUCUGAUGAGUCUGAGGUAAGACGAAACAGC [GAGGUA]", "readoutValue": 1.86}
{"sequenceText": "GCUGUCACCGGUGUAUUACCCUAGUGGUCGACCGGUCUGAUGAGUCUUCGUGUAGACGAAACAGC [UCGUGU]", "readoutValue": 1.82}

Exam item: Need normalized RNA/DNA level with ligand (log10) of GCUGUCACCGGUGUAUUACCCUAGUGGUCGACCGGUCUGAUGAGUCUUGAAGCAGACGAAACAGC [UGAAGC] , thanks.
Marked response: 1.93

Exam item: For the variant shown here, GCUGUCACCGGUGUAUUACCCUAGUGGUCGACCGGUCUGAUGAGUCUACUCAUAGACGAAACAGC [ACUCAU] , give the reported normalized RNA/DNA level with ligand (log10).
Marked response: 1.95

Exam item: I am curious: what normalized RNA/DNA level with ligand (log10) value has been reported for GCUGUCACCGGUGUAUUACCCUAGUGGUCGACCGGUCUGAUGAGUCUUAGGUAAGACGAAACAGC [UAGGUA] ?
Marked response: 1.96

Exam item: Fill in the blank: the reported normalized RNA/DNA level with ligand (log10) of GCUGUCACCGGUGUAUUACCCUAGUGGUCGACCGGUCUGAUGAGUCUCCCUCUAGACGAAACAGC [CCCUCU] is ____.
Marked response: 1.98

Exam item: GET /values?readout=normalized RNA/DNA level with ligand (log10)&item= GCUGUCACCGGUGUAUUACCCUAGUGGUCGACCGGUCUGAUGAGUCUCUAUAUAGACGAAACAGC [CUAUAU]
Marked response: 1.95

Exam item: What value of normalized RNA/DNA level with ligand (log10) has been reported for the following variant? GCUGUCACCGGUGUAUUACCCUAGUGGUCGACCGGUCUGAUGAGUCUAUUUCCAGACGAAACAGC [AUUUCC]
Marked response: 1.96

Exam item: Returns the measured normalized RNA/DNA level with ligand (log10) for the input variant. Input: GCUGUCACCGGUGUAUUACCCUAGUGGUCGACCGGUCUGAUGAGUCUAAGCCGAGACGAAACAGC [AAGCCG]
Marked response: 1.73

Each recorded value in this set is attributed to the supplement of paper PMC6757056.
